tested on: MALME-3M melanoma; test: NCI tumour cell line growth inhibition, 48 h

- compound: "O=C(N/C(=C/c1cccc([N+](=O)[O-])c1)c1nc2ccc(Cl)cc2[nH]1)c1ccccc1"
  TGI: "36.4 µM"
- compound: "CC(CC[C@@]1(O)OC2C[C@H]3[C@@H]4CC[C@H]5CC(OC6OC(CO)C(OC7OC(CO)C(O)C(OC8OCC(O)C(O)C8O)C7OC7OC(CO)C(O)C(O)C7O)C(O)C6O)[C@H](O)CC5(C)[C@H]4CCC3(C)C2[C@@H]1C)COC1OC(CO)C(O)C(O)C1O (stereo partly drawn)"
  TGI: "> 50 µM"
- compound: "COc1cc(-c2cc3ncccc3c3[nH]c(=O)c4cccnc4c23)cc(OC)c1OC"
  TGI: "> 100 µM"
